Test system: Bacillus subtilis
assay_overview: Antimicrobial activity against Bacillus subtilis 2250 at 35 degC after 18 to 24 hrs by NCCLS method based antimicrobial assay
Format: functional
Activity calls are given as the source filed them. No cut-off for these calls is given here.
readout_kind: MIC

In [3]: df
Out[3]:
                               given_smiles    subject_of_test  readout_value
0  O=[N+]([O-])c1ccc(/C(Cn2nnc3ccccc32)=N\Nc2nc(-c3ccc(Br)cc3)cs2)cc1  Bacillus subtilis      128 µg/mL
1  Fc1ccc(/C(Cn2nnc3ccccc32)=N\Nc2nc(-c3ccc(Cl)cc3)cs2)cc1  Bacillus subtilis       inactive
2  Brc1ccc(/C(Cn2nnc3ccccc32)=N\Nc2nc(-c3ccc(Br)cc3)cs2)cc1  Bacillus subtilis      128 µg/mL
3  O=[N+]([O-])c1ccc(-c2csc(N/N=C(/Cn3nnc4ccccc43)c3cc(C(F)(F)F)cc(C(F)(F)F)c3)n2)cc1  Bacillus subtilis       inactive
4  FC(F)(F)c1cc(/C(Cn2nnc3ccccc32)=N\Nc2nc(-c3cc(C(F)(F)F)cc(C(F)(F)F)c3)cs2)cc(C(F)(F)F)c1  Bacillus subtilis       inactive
5  Fc1ccc(-c2csc(N/N=C(/Cn3nnc4ccccc43)c3ccc(Br)cc3)n2)cc1  Bacillus subtilis       inactive
6  Clc1ccc(/C(Cn2nnc3ccccc32)=N\Nc2nc(-c3ccc(Br)cc3)cs2)cc1  Bacillus subtilis      128 µg/mL

Let us examine a further case.
Query: Which MIC is listed for "FC(F)(F)c1cc(/C(Cn2nnc3ccccc32)=N\Nc2nc(-c3ccc(Cl)cc3)cs2)cc(C(F)(F)F)c1" ?
Reply: inactive
